Assayed system: GDP-loaded WT KRAS (Homo sapiens, UniProt P01116)
Sequence (P01116 1-188 isoform P01116-2): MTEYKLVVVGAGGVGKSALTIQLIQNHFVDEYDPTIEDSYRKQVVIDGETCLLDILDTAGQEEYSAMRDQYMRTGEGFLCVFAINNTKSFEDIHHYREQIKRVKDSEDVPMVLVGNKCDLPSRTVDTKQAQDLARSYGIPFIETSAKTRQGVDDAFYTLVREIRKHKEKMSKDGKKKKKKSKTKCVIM
Method notes: KRAS WT Probe Displacement Assay
Format: binding
Assay context: WT KRAS 3 nM, biotinylated probe 1 60 nM; read-out: KRAS WT Probe Displacement Assay IC50
pIC50: −log10 of the molar value.
Binning rule for recorded pIC50: band A = under 7, band B = from 7 up to 8, band C = 8 and over

Req: Entry Cc1cc(N)nc(-c2c(F)cc3c(N4CC5CCC(C4)N5)nc(OC[C@@]45CCCN4C[C@H](F)C5)nc3c2F)c1C(F)(F)F belongs to which category?
Resp: band A

Req: Entry Cc1cc(N)nc(-c2c(C(F)(F)F)cc3c(N4CC5CCC(C4)N5)nc(OC[C@@]45CCCN4C[C@H](F)C5)nc3c2F)c1C(F)(F)F belongs to which category?
Resp: band B

Req: Entry Nc1nc2c(-c3c(Cl)cc4c(N5CC6CCC(C5)N6)nc(OC[C@@]56CCCN5C[C@H](F)C6)nc4c3F)c(F)cc(F)c2s1 belongs to which category?
Resp: band C

Req: Entry Cc1c(-c2ccc(F)c3sc(N)nc23)c(C(F)(F)F)cc2c(N3CC4CCC(C3)N4)nc(OC[C@@]34CCCN3C[C@H](F)C4)nc12 belongs to which category?
Resp: band C

Req: Entry C[C@@H](CN1CCC(F)C1)Oc1nc(N2C3CCC2CNC3)c2cc(Cl)c(-c3ccc(F)c4sc(N)nc34)c(F)c2n1 (stereo partly shown) belongs to which category?
Resp: band A

Req: Entry C[C@@H](CN1CCOCC1)Oc1nc(N2C3CCC2CNC3)c2cc(Cl)c(-c3ccc(F)c4sc(N)nc34)c(F)c2n1 belongs to which category?
Resp: band A

Req: Entry Nc1cc(Cl)c(C(F)(F)F)c(-c2c(Cl)cc3c(N4CC5CCC(C4)N5)nc(OC[C@@]45CCCN4C[C@H](F)C5)nc3c2F)n1 belongs to which category?
Resp: band B

Req: Entry Cc1cc(N)nc(-c2c(Cl)cc3c(N4CC5CCC(C4)N5)nc(OC[C@@H]4C[C@@H](F)CN4C)nc3c2F)c1C(F)(F)F belongs to which category?
Resp: band A

Req: Entry Cc1cc(N)nc(-c2c(Cl)cc3c(N4CC5CCC(C4)N5)nc(O[C@@H](C)CN4CCCCC4)nc3c2F)c1C(F)(F)F belongs to which category?
Resp: band A

Req: Entry Nc1nc2c(-c3c(C(F)(F)F)cc4c(N5CC6CC(C5)N6)nc(OC[C@@]56CCCN5C[C@H](F)C6)nc4c3F)ccc(F)c2s1 belongs to which category?
Resp: band C
